# Tested on: BDF1 mice, B16 melanoma ip, median survival T/C
# Test summary: NCI In Vivo Anticancer Drug Screen. Data for tumor model B16 Melanoma (intraperitoneal) in B6D2F1 (BDF1) mice
# Applied conditions: endpoint: median survival time; dose: 1.56 mg/kg/injection; schedule: Q01DX009 (ip); vehicle: saline; higher = longer survival
Inconclusive results and toxic doses are left out.
Below is a list of entries, each paired with its recorded T/C value.

>  <Compound>
COc1ccc(/C=N/n2c3ccccc3c3ccccc32)cc1OCCCN(C)C

>  <Measured on>
BDF1 mice, B16 melanoma ip, median survival T/C

>  <T/C>
112 % of control

$$$$
>  <Compound>
O=C1C(Br)=C(Br)C(=O)C1(Br)Br

>  <Measured on>
BDF1 mice, B16 melanoma ip, median survival T/C

>  <T/C>
100 % of control

$$$$
>  <Compound>
CNCC(O)c1cccc(O)c1 (stereo unspecified)

>  <Measured on>
BDF1 mice, B16 melanoma ip, median survival T/C

>  <T/C>
111 % of control

$$$$
>  <Compound>
CNCCCC1c2ccccc2C=Cc2ccccc21

>  <Measured on>
BDF1 mice, B16 melanoma ip, median survival T/C

>  <T/C>
106 % of control

$$$$

Problem: Identify the measured T/C of CN1CCN(CCC=C2c3ccccc3Sc3ccc(S(=O)(=O)N(C)C)cc32)CC1 for BDF1 mice, B16 melanoma ip, median survival T/C.
Solution: 100 % of control

Problem: Identify the measured T/C of CCCCCC(O)C1C(=O)OC(C)C(O)/C=C/C=C/C=C/C=C/C=C(\C)C(O)C(O)C(O)CC(O)CC(O)CC(O)CC(O)CC1O (stereo unspecified) for BDF1 mice, B16 melanoma ip, median survival T/C.
Solution: 119 % of control

Problem: Identify the measured T/C of CNc1nc2c(N)ncnc2n1C1OC(CO)C(O)C1O (stereo unspecified) for BDF1 mice, B16 melanoma ip, median survival T/C.
Solution: 94 % of control

Problem: Identify the measured T/C of C[n+]1c2cc(N)ccc2cc2ccc(N)cc21 for BDF1 mice, B16 melanoma ip, median survival T/C.
Solution: 107 % of control

Problem: Identify the measured T/C of CCCCCCCCCCCCCCCC(=O)N(C/C=C/CN(CCCN(C)C)C(=O)CCCCCCCCCCCCCCC)CCCN(C)C for BDF1 mice, B16 melanoma ip, median survival T/C.
Solution: 90 % of control

Problem: Identify the measured T/C of CCCCN(C)N=Nc1ccc(CCCC(=O)OCC)cc1 for BDF1 mice, B16 melanoma ip, median survival T/C.
Solution: 97 % of control

Problem: Identify the measured T/C of CCCCOCCN1CCN(CCCN2c3ccccc3Sc3ccc(C(F)(F)F)cc32)CC1 for BDF1 mice, B16 melanoma ip, median survival T/C.
Solution: 115 % of control
